Biological target: UniProt:P29350
Sequence (P29350 whole entry): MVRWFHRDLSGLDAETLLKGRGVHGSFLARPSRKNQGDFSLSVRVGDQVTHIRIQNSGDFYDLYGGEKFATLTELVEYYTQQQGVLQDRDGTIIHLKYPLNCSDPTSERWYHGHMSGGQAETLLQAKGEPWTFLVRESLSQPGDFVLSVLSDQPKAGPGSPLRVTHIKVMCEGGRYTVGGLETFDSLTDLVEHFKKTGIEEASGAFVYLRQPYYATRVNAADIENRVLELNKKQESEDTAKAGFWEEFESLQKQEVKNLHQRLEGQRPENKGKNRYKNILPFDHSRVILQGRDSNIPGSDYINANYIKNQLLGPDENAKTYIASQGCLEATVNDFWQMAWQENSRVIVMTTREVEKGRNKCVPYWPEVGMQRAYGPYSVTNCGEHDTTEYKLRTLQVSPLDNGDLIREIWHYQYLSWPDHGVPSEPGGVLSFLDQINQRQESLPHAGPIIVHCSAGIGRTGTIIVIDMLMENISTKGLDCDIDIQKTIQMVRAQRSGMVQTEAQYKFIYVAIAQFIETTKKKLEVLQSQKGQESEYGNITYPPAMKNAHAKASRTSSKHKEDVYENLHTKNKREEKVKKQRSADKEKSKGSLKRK
Assay: Protein phosphatase inhibition assay, SHP1
endpoint: IC50 (µM)
# number only, unit µM dropped from output

>  <molecule>
COc1cc2ccncc2c(O)c1Cc1c(OC)cc(O)c2cnccc12

>  <endpoint>
IC50

>  <measured>
130

$$$$
>  <molecule>
COc1cc2ccncc2c(O)c1Cc1c(O)cc(O)c(OC)c1C(=O)C(C)=O

>  <endpoint>
IC50

>  <measured>
100

$$$$
>  <molecule>
COc1cc(O)c2cnccc2c1 [Compound 1, 6-methoxy-8-hydroxy-isoquinolin]

>  <endpoint>
IC50

>  <measured>
38.3

$$$$

Turning now to a further record.
[in] Need IC50 of COc1cc2ccncc2c(O)c1Cc1c(O)c(OC)c2c(c1O)C(=O)O[C@H]2[C@@H](C)O , thanks.
[out] 145
